- Tested on: MDCK
- test-protocol: Tested for minimum inhibitory concentration required to cause a microscopically detectable alteration of normal cell morphology by 50% on MDCK cell line
- Format: functional
- protocol-conditions: Canis lupus familiaris
reported-endpoint: MIC50 (µg/mL)
Number only, in µg/mL; omit the unit.

# annotated cases, reported MIC50 shown
Query block: Data request, read-out MIC50, for CN(C)CC1CC12C1CC3CC(C1)CC2C3 (stereo unspecified)
Result block: 70

Query block: Data request, read-out MIC50, for O=C(Nc1ccc(Cl)cc1)N1CCCC12C1CC3CC(C1)CC2C3 (stereo unspecified)
Result block: 20

Query block: Data request, read-out MIC50, for CNC1CC12C1CC3CC(C1)CC2C3 (stereo unspecified)
Result block: 100

# evaluate next
Query block: Data request, read-out MIC50, for NCC1CC12C1CC3CC(C1)CC2C3 (stereo unspecified)
Result block: 20

====

- Tested on: HEF
- test-protocol: Tested for minimum inhibitory concentration required to reduce […] by 50% on HEF cell line
- Format: functional
- protocol-conditions: Homo sapiens
reported-endpoint: MIC50 (µg/mL)
Number only, in µg/mL; omit the unit.

Query block: Data request, read-out MIC50, for NC1CC12C1CC3CC(C1)CC2C3 (stereo not given)
Result block: 80

Query block: Data request, read-out MIC50, for O=C(Nc1ccc(Cl)cc1)N1CCCC12C1CC3CC(C1)CC2C3 (stereo not given)
Result block: 150

Query block: Data request, read-out MIC50, for CNCC1CC12C1CC3CC(C1)CC2C3 (stereo not given)
Result block: 50

Query block: Data request, read-out MIC50, for CN(C)CC1CC12C1CC3CC(C1)CC2C3 (stereo not given)
Result block: 95

Query block: Data request, read-out MIC50, for NCC1CC12C1CC3CC(C1)CC2C3 (stereo not given)
Result block: 28

# evaluate next
Query block: Data request, read-out MIC50, for CNC1CC12C1CC3CC(C1)CC2C3 (stereo not given)
Result block: 90

====

- Test system: MDCK
- test-protocol: Tested for minimum inhibitory concentration required to cause a microscopically detectable alteration of normal cell morphology by 50% on MDCK cell line
- Assay type: functional
- protocol-conditions: Canis lupus familiaris
Below is a list of entries, each paired with its recorded MIC50 value.

# annotated cases, reported MIC50 shown
Query block: Data request, read-out MIC50, for NC1CC12C1CC3CC(C1)CC2C3 (stereo unspecified)
Result block: 100 µg/mL

Query block: Data request, read-out MIC50, for CNCC1CC12C1CC3CC(C1)CC2C3 (stereo unspecified)
Result block: 20 µg/mL

Query block: Data request, read-out MIC50, for NC12CC3CC(CC(C3)C1)C2 [AMANTADINE]
Result block: > 100 µg/mL

Query block: Data request, read-out MIC50, for CN(C)C1CC12C1CC3CC(C1)CC2C3 (stereo unspecified)
Result block: 100 µg/mL

Query block: Data request, read-out MIC50, for C1CNC2(C1)C1CC3CC(C1)CC2C3 (stereo unspecified)
Result block: > 200 µg/mL

# evaluate next
Query block: Data request, read-out MIC50, for CN1CCCC12C1CC3CC(C1)CC2C3 (stereo unspecified)
Result block: > 200 µg/mL

====

- Tested on: CCRF-CEM
- test-protocol: Tested for minimum inhibitory concentration required to reduce virus-induced cytopathicity by 50% was evaluated on CEM cell line infected with HIV-1 virus
- Format: functional
- protocol-conditions: Homo sapiens
Below is a list of entries, each paired with its recorded MIC50 value.

Query block: Data request, read-out MIC50, for CN(C)C1CC12C1CC3CC(C1)CC2C3 (stereo not given)
Result block: > 200 µg/mL

Query block: Data request, read-out MIC50, for CNCC1CC12C1CC3CC(C1)CC2C3 (stereo not given)
Result block: > 8 µg/mL

Query block: Data request, read-out MIC50, for CCN1CCCC12C1CC3CC(C1)CC2C3 (stereo not given)
Result block: > 200 µg/mL

Query block: Data request, read-out MIC50, for C1CNC2(C1)C1CC3CC(C1)CC2C3 (stereo not given)
Result block: > 40 µg/mL

Query block: Data request, read-out MIC50, for NC1CC12C1CC3CC(C1)CC2C3 (stereo not given)
Result block: > 8 µg/mL

Query block: Data request, read-out MIC50, for O=C(Nc1ccc(Cl)cc1)N1CCCC12C1CC3CC(C1)CC2C3 (stereo not given)
Result block: > 1.6 µg/mL

Query block: Data request, read-out MIC50, for CNC1CC12C1CC3CC(C1)CC2C3 (stereo not given)
Result block: > 8 µg/mL

Query block: Data request, read-out MIC50, for NCC1CC12C1CC3CC(C1)CC2C3 (stereo not given)
Result block: > 8 µg/mL

Further cases:
Query block: Data request, read-out MIC50, for CN1CCCC12C1CC3CC(C1)CC2C3 (stereo not given)
Result block: > 200 µg/mL

Query block: Data request, read-out MIC50, for CN(C)CC1CC12C1CC3CC(C1)CC2C3 (stereo not given)
Result block: > 40 µg/mL

====

Below is a list of entries, each paired with its recorded MIC50 value.
- Test system: HEF
- test-protocol: Tested for minimum inhibitory concentration required to reduce […] by 50% on HEF cell line
- Format: functional
- protocol-conditions: Homo sapiens

Query block: Data request, read-out MIC50, for CCN1CCCC12C1CC3CC(C1)CC2C3 (centres undefined)
Result block: > 200 µg/mL

Query block: Data request, read-out MIC50, for CN(C)C1CC12C1CC3CC(C1)CC2C3 (centres undefined)
Result block: > 200 µg/mL

Query block: Data request, read-out MIC50, for C1CNC2(C1)C1CC3CC(C1)CC2C3 (centres undefined)
Result block: > 50 µg/mL

# evaluate next
Query block: Data request, read-out MIC50, for CN1CCCC12C1CC3CC(C1)CC2C3 (centres undefined)
Result block: > 50 µg/mL
